Target: UniProt:Q13285
Sequence (Q13285 whole entry, the tested form may be a part): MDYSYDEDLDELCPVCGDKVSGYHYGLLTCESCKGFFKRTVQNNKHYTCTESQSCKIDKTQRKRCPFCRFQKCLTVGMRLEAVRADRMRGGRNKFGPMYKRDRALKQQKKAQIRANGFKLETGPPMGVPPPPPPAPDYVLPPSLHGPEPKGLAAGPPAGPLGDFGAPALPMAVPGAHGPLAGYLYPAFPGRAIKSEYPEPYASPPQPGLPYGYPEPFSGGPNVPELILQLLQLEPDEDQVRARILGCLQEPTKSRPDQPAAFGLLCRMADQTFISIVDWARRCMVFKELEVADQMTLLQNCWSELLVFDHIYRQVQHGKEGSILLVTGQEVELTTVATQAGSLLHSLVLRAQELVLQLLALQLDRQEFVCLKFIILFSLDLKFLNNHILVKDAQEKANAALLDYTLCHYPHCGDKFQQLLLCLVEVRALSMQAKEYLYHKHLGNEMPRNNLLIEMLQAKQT
Assay: inhibition of SF-1 LBD-driven luciferase – cell-based, CHO-K1, Gal4-SF-1 LBD, luciferase luminescence, counter-screen for RORA inhibitor project, dose response (AID 611)
pIC50: −log10 of the molar value.
VALUE TYPE: pIC50

>>> value("Cc1ccsc1C(=O)OCC(=O)c1cc(C)n(CC2CCCO2)c1C (centres undefined)")
"< 7.34"
>>> value("COc1ccc(C(=O)Nc2ccc(C)cn2)c(OC)c1")
"< 5.91"
>>> value("Cc1cccc(-n2ncc3c(N4CCOCC4)ncnc32)c1")
"< 5.44"
>>> value("Cc1cc(C)cc(Nc2ccc(C(=O)O)cc2N)c1")
"< 4.00"
>>> value("Cc1ccc(-c2nc3nc4ccccc4nc3n2Cc2ccco2)cc1")
"< 4.48"
>>> value("c1c2c(cc3sc(N4CCOCC4)nc13)OCCO2")
"< 5.44"
>>> value("CCn1c(C)nc2cc(-c3nc4n(n3)Cc3ccccc3-4)ccc21")
"< 8.30"
>>> value("CCOc1ccc(OCc2ccc(C(=O)OCc3ccccn3)o2)cc1")
"< 4.96"
>>> value("Fc1ccc(-c2nnc(NC3=NCCCCC3)o2)cc1")
"< 5.44"
